# Test system: HT29 RAMS11 overexpressing cells
# PROCEDURE SUMMARY: High-throughput viability assay (resazurin), 119 FDA-approved anticancer drugs, RAMS11 overexpressing cells (Clone1, Clone2)
# APPLIED CONDITIONS: OE1 (RAMS11 overexpression clone 1), 1 uM drug, 72 h, vs empty vector control
Viability Fold Change values by entry

{"COMPOUND": "Cn1nnc2c(C(N)=O)ncn2c1=O [Temozolomide]", "Viability Fold Change": 0.9467}
{"COMPOUND": "CC(C)Cn1cnc2c(N)nc3ccccc3c21", "Viability Fold Change": 1.101}
{"COMPOUND": "COc1c2occc2cc2ccc(=O)oc12", "Viability Fold Change": 0.971}
{"COMPOUND": "CO[C@H]1C[C@@H]2CC[C@@H](C)[C@@](O)(O2)C(=O)C(=O)N2CCCC[C@H]2C(=O)O[C@H]([C@H](C)C[C@@H]2CC[C@@H](OCCO)[C@H](OC)C2)CC(=O)[C@H](C)/C=C(\\C)[C@@H](O)[C@@H](OC)C(=O)[C@H](C)C[C@H](C)/C=C/C=C/C=C/1C", "Viability Fold Change": 0.7474}

---

# System: HT29 RAMS11 overexpressing cells
# PROCEDURE SUMMARY: High-throughput viability assay (resazurin), 119 FDA-approved anticancer drugs, RAMS11 overexpressing cells (Clone1, Clone2)
# APPLIED CONDITIONS: OE2 (RAMS11 overexpression clone 2), 10 uM drug, 72 h, vs empty vector control
Structures can show the parent of a compound that is named as a salt.

{"MOLECULE": "O=c1[nH]c(=O)n([C@H]2C[C@H](O)[C@@H](CO)O2)cc1F [floxuridine, reference compound]", "Viability Fold Change": 3.091}
{"MOLECULE": "N.N.[Cl][Pt][Cl] [Cisplatin]", "Viability Fold Change": 0.9961}
{"MOLECULE": "CO[C@H]1C[C@@H]2CC[C@@H](C)[C@@](O)(O2)C(=O)C(=O)N2CCCC[C@H]2C(=O)O[C@H]([C@H](C)C[C@@H]2CC[C@@H](OC(=O)C(C)(CO)CO)[C@H](OC)C2)CC(=O)[C@H](C)/C=C(\\C)[C@@H](O)[C@@H](OC)C(=O)[C@H](C)C[C@H](C)/C=C/C=C/C=C/1C", "Viability Fold Change": 0.693}
{"MOLECULE": "Nc1ccn([C@@H]2O[C@H](CO)[C@@H](O)[C@@H]2O)c(=O)n1 [Cytarabine hydrochloride]", "Viability Fold Change": 1.876}
{"MOLECULE": "CNC(=O)c1ccccc1Sc1ccc2c(/C=C/c3ccccn3)n[nH]c2c1", "Viability Fold Change": 0.8143}
{"MOLECULE": "C[C@]12CC[C@H](O)CC1=CC[C@@H]1[C@@H]2CC[C@]2(C)C(c3cccnc3)=CC[C@@H]12", "Viability Fold Change": 0.9879}
{"MOLECULE": "CC[C@H](Nc1ncnc2[nH]cnc12)c1nc2cccc(F)c2c(=O)n1-c1ccccc1", "Viability Fold Change": 0.8746}
{"MOLECULE": "CCCCC(=O)OCC(=O)[C@]1(O)Cc2c(O)c3c(c(O)c2[C@@H](O[C@H]2C[C@H](NC(=O)C(F)(F)F)[C@H](O)[C@H](C)O2)C1)C(=O)c1c(OC)cccc1C3=O", "Viability Fold Change": 1.792}
{"MOLECULE": "O=C(CCBr)N1CCN(C(=O)CCBr)CC1", "Viability Fold Change": 0.8949}
{"MOLECULE": "COc1cc2c(Nc3ccc(Br)cc3F)ncnc2cc1OCC1CCN(C)CC1", "Viability Fold Change": 1.142}
{"MOLECULE": "CC(C)Cn1cnc2c(N)nc3ccccc3c21", "Viability Fold Change": 0.9752}
{"MOLECULE": "NCC(=O)CCC(=O)O", "Viability Fold Change": 0.9613}
{"MOLECULE": "Nc1ncn([C@H]2C[C@H](O)[C@@H](CO)O2)c(=O)n1", "Viability Fold Change": 1.168}
{"MOLECULE": "O=c1[nH]cc(F)c(=O)[nH]1 [5-FU, fluorouracil, reference compound]", "Viability Fold Change": 1.021}
{"MOLECULE": "CN(N=O)C(=O)N[C@@H](C=O)[C@@H](O)[C@H](O)[C@H](O)CO", "Viability Fold Change": 0.9955}
{"MOLECULE": "CCCS(=O)(=O)Nc1ccc(F)c(C(=O)c2c[nH]c3ncc(-c4ccc(Cl)cc4)cc23)c1F", "Viability Fold Change": 0.6144}
{"MOLECULE": "N[C@@H](Cc1ccc(N(CCCl)CCCl)cc1)C(=O)O", "Viability Fold Change": 0.9942}
{"MOLECULE": "C[C@@H](Oc1cc(-c2cnn(C3CCNCC3)c2)cnc1N)c1c(Cl)ccc(F)c1Cl", "Viability Fold Change": 0.8562}
{"MOLECULE": "CC(=O)O[C@@]12CO[C@@H]1C[C@H](O)[C@@]1(C)C(=O)[C@H](O)C3=C(C)[C@@H](OC(=O)[C@H](O)[C@@H](NC(=O)OC(C)(C)C)c4ccccc4)C[C@@](O)([C@@H](OC(=O)c4ccccc4)[C@H]21)C3(C)C", "Viability Fold Change": 2.869}
{"MOLECULE": "COc1nc(N)nc2c1ncn2[C@@H]1O[C@H](CO)[C@@H](O)[C@@H]1O", "Viability Fold Change": 0.9701}
{"MOLECULE": "OC[C@H]1O[C@@H](n2cnc3c2NC=NC[C@H]3O)C[C@@H]1O", "Viability Fold Change": 1.078}
{"MOLECULE": "C[C@@H](CN1CC(=O)NC(=O)C1)N1CC(=O)NC(=O)C1", "Viability Fold Change": 1.119}
{"MOLECULE": "COc1cccc2c1C(=O)c1c(O)c3c(c(O)c1C2=O)C[C@@](O)(C(=O)CO)C[C@@H]3O[C@H]1C[C@H](N)[C@@H](O)[C@H](C)O1 [Epirubicin hydrochloride]", "Viability Fold Change": 1.999}
{"MOLECULE": "O=NN(CCCl)C(=O)NC1CCCCC1", "Viability Fold Change": 0.9646}
{"MOLECULE": "Nc1nc(Cl)nc2c1ncn2[C@H]1C[C@H](O)[C@@H](CO)O1", "Viability Fold Change": 1.86}
{"MOLECULE": "CCC1=C[C@@H]2CN(C1)Cc1c([nH]c3ccccc13)[C@@](C(=O)OC)(c1cc3c(cc1OC)N(C)[C@H]1[C@@](O)(C(=O)OC)[C@H](OC(C)=O)[C@]4(CC)C=CCN5CC[C@]31[C@@H]54)C2 [Vinorelbine tartrate]", "Viability Fold Change": 2.913}
{"MOLECULE": "Cn1nnc2c(C(N)=O)ncn2c1=O [Temozolomide]", "Viability Fold Change": 0.9198}
{"MOLECULE": "COc1cccc2c1C(=O)c1c(O)c3c(c(O)c1C2=O)C[C@@](O)(C(=O)CO)C[C@@H]3O[C@H]1C[C@H](N)[C@H](O)[C@H](C)O1 [doxorubicin HCl, reference compound]", "Viability Fold Change": 2.403}
{"MOLECULE": "CC(=O)O[C@H]1C(=O)[C@@]2(C)[C@H]([C@H](OC(=O)c3ccccc3)[C@]3(O)C[C@H](OC(=O)[C@H](O)[C@@H](NC(=O)c4ccccc4)c4ccccc4)C(C)=C1C3(C)C)[C@]1(OC(C)=O)CO[C@@H]1C[C@@H]2O", "Viability Fold Change": 3.061}
